# Test system: Mus musculus
# test description: Hepatotoxicity in Kunming mouse assessed as serum AST level at 0.5 g/kg by automatic biochemical analyser (reference value: 133.44 +/- 25.05 U/T)
# Format: toxicity, organism-based
# experimental setup: in vivo, 500 mg/kg
test readout: Activity (U/L)

smiles_repr=CCCc1nc2c(C)cc(C(=O)NC[C@H](C)c3ccccc3)cc2n1Cc1ccc(-c2ccccc2-c2nnn[nH]2)cc1 tgt="Mus musculus" observed_value=126

----------
# tgt: Type-1 angiotensin II receptor (Homo sapiens, UniProt P30556)
# Sequence (P30556 whole entry): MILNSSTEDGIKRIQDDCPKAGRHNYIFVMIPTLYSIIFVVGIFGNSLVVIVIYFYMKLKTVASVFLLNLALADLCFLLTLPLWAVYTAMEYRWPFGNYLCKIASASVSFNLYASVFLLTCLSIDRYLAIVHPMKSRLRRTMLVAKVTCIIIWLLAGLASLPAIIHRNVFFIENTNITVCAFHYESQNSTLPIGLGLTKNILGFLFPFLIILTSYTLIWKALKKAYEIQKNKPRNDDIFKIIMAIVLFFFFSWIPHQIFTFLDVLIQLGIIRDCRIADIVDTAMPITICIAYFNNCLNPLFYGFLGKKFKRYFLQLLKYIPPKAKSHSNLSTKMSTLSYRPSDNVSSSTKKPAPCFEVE
# test description: Displacement of [125I]Sar1Ile8-Ang2 from human AT1 receptor expressed in CHO-K1 cell membranes after 180 mins
test readout: IC50 (nM)

compound=CCSc1nc2c(C)cc(C(=O)NC[C@@H](C)c3ccccc3)cc2n1Cc1ccc(-c2ccccc2-c2nnn[nH]2)cc1 unit_abbreviation=nM observed_value=622
compound=CCCc1nc2c(C)cc(C(=O)NC[C@H](O)c3ccccc3)cc2n1Cc1ccc(-c2ccccc2C(=O)O)cc1 unit_abbreviation=nM observed_value=93.9
compound=CCCc1nc2c(C)cc(C(=O)N[C@H](CO)c3ccccc3)cc2n1Cc1ccc(-c2ccccc2C(=O)O)cc1 unit_abbreviation=nM observed_value=214
compound=CCSc1nc2c(C)cc(C(=O)NC[C@H](C)c3ccccc3)cc2n1Cc1ccc(-c2ccccc2-c2nnn[nH]2)cc1 unit_abbreviation=nM observed_value=503
compound=CCCSc1nc2c(C)cc(C(=O)NC[C@@H](C)c3ccccc3)cc2n1Cc1ccc(-c2ccccc2C(=O)O)cc1 unit_abbreviation=nM observed_value=87.2
compound=CCCSc1nc2c(C)cc(C(=O)NC[C@@H](C)c3ccccc3)cc2n1Cc1ccc(-c2ccccc2-c2nnn[nH]2)cc1 unit_abbreviation=nM observed_value=2.7
compound=CCCc1nc2c(C)cc(C(=O)N[C@H](CO)c3ccccc3)cc2n1Cc1ccc(-c2ccccc2-c2nnn[nH]2)cc1 unit_abbreviation=nM observed_value=129
compound=CCCc1nc2c(C)cc(C(=O)NC[C@H](C)c3ccccc3)cc2n1Cc1ccc(-c2ccccc2C(=O)O)cc1 unit_abbreviation=nM observed_value=23
compound=CCCc1nc2c(C)cc(C(=S)NC[C@H](C)c3ccccc3)cc2n1Cc1ccc(-c2ccccc2-c2nnn[nH]2)cc1 unit_abbreviation=nM observed_value=366
compound=CCCc1nc2c(C)cc(C(=O)N[C@@H](C)c3ccccc3)cc2n1Cc1ccc(-c2ccccc2C(=O)O)cc1 unit_abbreviation=nM observed_value=19.5
compound=CCCc1nc2c(C)cc(C(=O)NCCc3ccccc3)cc2n1Cc1ccc(-c2ccccc2C(=O)O)cc1 unit_abbreviation=nM observed_value=23.1
compound=CCCSc1nc2c(C)cc(C(=O)NC[C@H](C)c3ccccc3)cc2n1Cc1ccc(-c2ccccc2C(=O)O)cc1 unit_abbreviation=nM observed_value=61.2
compound=CCCc1nc2c(C)cc(C(=O)N[C@@H](CO)c3ccccc3)cc2n1Cc1ccc(-c2ccccc2C(=O)O)cc1 unit_abbreviation=nM observed_value=496
compound=CCCc1nc2c(C)cc(C(=O)NC[C@H](C)c3ccccc3)cc2n1Cc1ccc(-c2ccccc2-c2nnn[nH]2)cc1 unit_abbreviation=nM observed_value=1.1
compound="CCCc1nc2c(C)cc(C(=O)NCC(C)c3ccccc3)cc2n1Cc1ccc(-c2ccccc2-c2nnn[nH]2)cc1 (racemic)" unit_abbreviation=nM observed_value=16.7
compound=CCCc1nc2c(C)cc(C(=O)NC[C@@H](C)c3ccccc3)cc2n1Cc1ccc(-c2ccccc2-c2nnn[nH]2)cc1 unit_abbreviation=nM observed_value=5
